EXPERIMENT_SUMMARY: Specific activity of purified CHI, absorbance decrease at 384 nm, eriodictyol chalcone; also: unit not given here
Format: biochemical
EXPERIMENTAL_PARAMETERS: purified CHI in 50 mM PBS, 100 μM substrate, 25° C.
MEASURE: Specific activity, Eriodictyol chalcone
Answer with a bare number; do not write a unit.

CHI7: Chalcone isomerase from Clostridium sp. SY8519, access no. WP_013978403.1 (protein, Clostridium sp. SY8519) ADFKFEPMRSFIYVNCAKEDYRPKLQRWLYKTHVPDSIGQFEPYVTKYAFYPSFPTPPEGERFGYCSMQLTEHHWMVSDFDERLGIKAIAETFPPEVLLWQGNITEGMLEAMKKNGGAPGDDGGDSGNEARSTNMEGANPFIFCFAPYWWEDDIKGKGRTIEDGANYRWNVAIGYPEGVSAEEGDRWLFEEVIPVFEAAPECTRILHSKVKKEINGGSGMEHILEFWFENQSGWYQTAVEATKTLKKPAWAQQDQFPFLKPYHKFISVAVADFTMANNLVNYHGYIPRR: 123.6
CHIera Mut14: Chalcone isomerase variant 14 from Eubacterium ramulus, genetically engineered (protein, listed as Eubacterium ramulus) MADFKFEPMRSLIYVDCVSEDYRPKLQRWIYKVHIPDSISKFEPYVTKYAFYPSFPIPPQGDRFGYARMQLTEHHWLVSELDPRLEINAIAETFPMDVLVWQGQIPAAAHTDAQIDSDGDAHRAARKSNNAEGNPFIFAFLPMWWEKDLKGKGRTIEDGANYRFNMTIGFPEGVDKAEGEKWLFEKVVPILQAAPECTRVLASAVKKDINGCVMDWVLEIWFENQSGWYKVMVDDMKALEKPSWAQQDAFPFLKPYHNVCSAAVADYTPSNNLANYRGYITMR: 27.2
CHIera Mut10: Chalcone isomerase variant 10 from Eubacterium ramulus, genetically engineered (protein, listed as Eubacterium ramulus) MADFKFEPMRSLIYVDCVSEDYRPKLQRWIYKVHIPDSISQFEPYVTKYAFYPSFPIPPQGDRFGYARMQLTEHHWLVSILDPRLEIKAIAETFPMDVLVWQGQIPAAAHTDAQIDSDGDAGDAARKSNNAEGNPFIFAFLPMWWEKDLKGKGRTIEDGANYRFNMTIGFPEGVDKAEGEKWLFEKVVPILQAAPECTRVLASAVKKDINGCVMDWVLEIWFENQSGWYKVMVDDMKALEKPSWAQQDAFPFLKPYHNVCSAAVADYTPSNNLANYRGYITMR: 60.0

Consider the additional molecule presented here.
The molecule CHI5: Chalcone isomerase from Parasporobacterium paucivorans, access no. WP_073993359.1 (protein, Parasporobacterium paucivorans) GPEFQPMRSLIYVDCVKEEYRHRLQNWLYHYHVPDSISQFAPYVSKYCFYNALPTPPEGERFGTIRQQLTEHYWMVNPFTEHFKNKALTEYFPCDVLKWQGNIPDDDLEVNFEGDEARSKGGHNGCAPFIFAFLPLCWEEDFKGKERTIENGPNYRWNFVMKYPEGTSMEEGDKWFYEKMIPAFQEMPEVTRILTSKVIQSINGCAFHRVVEMWFDGPNAWYQAAVVKAKNIEKPSWASVDAFPYLQATFEFDGIFLTDYAASDNMSQYRGYLAMR showed Specific activity, Eriodictyol chalcone equal to 82.7
